- System: COLO 205
- PROTOCOL SUMMARY: NCI tumour cell line growth inhibition, 48 h
The source made the active and inactive calls. No stated cut-off is given here; in the data, active = GI50 up to about 1.1 µM and inactive = higher.
Measured GI50 accompanies every entry in the list below.

# MOLECULE, SYSTEM TESTED, GI50
records = [
    ("Cc1cc2nc(N3C(=O)/C(=C/c4ccccc4S)N=C3c3ccccc3)sc2cc1C", "COLO 205", "30.6 µM (inactive)"),
    ("NCC1(N2CCOCC2)C2CCCC21CNc1ccccc1 (stereo not given)", "COLO 205", "> 100 µM (inactive)"),
    ("CC(=O)N[C@@H](Cc1ccc(O)cn1)C(=O)NCc1ccc(Cl)cc1", "COLO 205", "> 100 µM (inactive)"),
    ("CN/C(N)=N/N=C1/C(=O)Nc2ccccc21", "COLO 205", "> 100 µM (inactive)"),
    ("O=C1/C(=C\\c2ccco2)Oc2ccccc21", "COLO 205", "> 100 µM (inactive)"),
]

###

- System: SNB-75
- PROTOCOL SUMMARY: NCI tumour cell line growth inhibition, 48 h
Active and inactive are the calls of the source. Cut-off read from the data, not from the text of the source: active = GI50 up to about 1.1 µM and inactive = higher.
Measured GI50 accompanies every entry in the list below.

# COMPOUND, SYSTEM TESTED, GI50
records = [
    ("OCC(O)COc1c(Cl)cc(Cl)cc1Cl (stereo not drawn)", "SNB-75", "> 100 µM (inactive)"),
    ("CCCCn1c(CSc2ccc(Cl)cc2)c(C(=O)OCC)c2cc(OC)c(Br)cc21", "SNB-75", "> 100 µM (inactive)"),
    ("O=C1C=C2S[C@H]3C[C@]2(C=C1Br)C1=C(N3)C(=O)c2[nH]cc3c2C1=NCC3 [(+)-DISCORHABDIN B]", "SNB-75", "1.55 µM (inactive)"),
]

###

Measured GI50 accompanies every entry in the list below.
- Tested on: SF-268
- PROTOCOL SUMMARY: NCI tumour cell line growth inhibition, 48 h
Active and inactive are the calls of the source. Cut-off read from the data, not from the text of the source: active = GI50 up to about 1.1 µM and inactive = higher.

# COMPOUND, GI50
data = [
    ("COC(=O)C1=COC(C)C2C[n+]3ccc4c([nH]c5ccccc54)c3CC12 (stereo not given)", "> 100 µM (inactive)"),
    ("CC1(C)CCCC2(C)C3C(O)CC2(C)C(O)C31 (stereo not given)", "> 100 µM (inactive)"),
    ("C=C1CN2CCc3c([nH]c4ccccc34)C2CC1CC(=O)N(C)C (stereo not given)", "> 309 µM (inactive)"),
    ("COC1=C(OC)CCC(/C(C#N)=C/c2ccc(OC)c(OC)c2)=C1", "37.2 µM (inactive)"),
    ("Cc1cc2nc(N3C(=O)/C(=C/c4ccccc4S)N=C3c3ccccc3)sc2cc1C", "40.8 µM (inactive)"),
    ("CCCCN(CCCC)C(=O)/C(CC(=O)c1cccc2ccccc12)=N\\NC(=O)c1cc2ccccc2cc1O", "11.2 µM (inactive)"),
    ("CC1C/C(=N\\N(C)C)C(C#N)(C#N)C1(C#N)C#N (stereo not given)", "15.6 µM (inactive)"),
    ("COC1CC(O)C(OC(=O)c2ccccc2)C(C)O1 (stereo not given)", "> 100 µM (inactive)"),
    ("N#CCCN(CCCN(C(=O)Nc1ccc(NC(=O)N(CCCN(CCC#N)C(N)=O)c2ccccc2)cc1)c1ccccc1)C(N)=O", "> 100 µM (inactive)"),
    ("CC1(Cl)C(=O)NC(=O)N(C2CC(N=[N+]=[N-])C(CO)O2)C1N=[N+]=[N-] (stereo not given)", "> 100 µM (inactive)"),
    ("CC(=O)Oc1ccc(OC(Oc2ccccc2)c2ccccc2)cc1 (stereo not given)", "33 µM (inactive)"),
    ("CO[C@@H]1C=C[C@@]23c4cc5c(cc4CN(C[C@@H]2O)[C@H]3C1)OCO5 [(+)-HAEMANTHAMINE]", "29.7 µM (inactive)"),
    ("CN(C)CCNC(=O)Cn1ccc(=O)c2ccc([N+](=O)[O-])cc21", "> 100 µM (inactive)"),
    ("Brc1ccc(C2=NCSC(c3ccc(Br)cc3)=N2)cc1", "53.3 µM (inactive)"),
    ("O=C(O)C12C3CCC(O3)C1(C(=O)O)C1CCC2O1 (stereo not given)", "> 100 µM (inactive)"),
    ("O=c1[nH]nc(Nc2ccccc2)c2nnn(Cc3ccccc3)c12", "> 100 µM (inactive)"),
    ("CNC(=O)c1nc[nH]c1/N=N/N(C)N", "> 100 µM (inactive)"),
    ("Cc1cccc(/N=N/C(=O)NNc2cccc(C)c2C)c1C", "34 µM (inactive)"),
    ("CCC(O)(c1ccc(OC)cc1)C(c1ccc(OCc2ccccc2)cc1)c1ccc(OCc2ccccc2)cc1 (stereo not given)", "> 100 µM (inactive)"),
    ("CN/C(=N\\CCSCc1nc[nH]c1C)NC#N", "> 100 µM (inactive)"),
    ("CC(=O)c1ccc(N2CCN(C3=C(Cl)C(=O)c4c(O)ccc(O)c4C3=O)CC2)cc1", "3.1 µM (inactive)"),
    ("CC(C)CN(CC#N)CC(C)C", "> 100 µM (inactive)"),
    ("O=C(N/C(=C\\c1cccc([N+](=O)[O-])c1)c1nc2c(O)nc(S)nc2[nH]1)c1ccccc1", "48.2 µM (inactive)"),
    ("CCOC(=O)C(CNc1ccc(O)cc1)NC(=O)c1ccccc1 (stereo not given)", "> 100 µM (inactive)"),
    ("CSc1nc(SC)c2c(CN=[N+]=[N-])c(Br)n(Cc3ccccc3)c2n1", "> 100 µM (inactive)"),
    ("COc1cccc2cc(C(=O)O)c(=O)oc12", "> 100 µM (inactive)"),
    ("O=C1CCSSCCC(=O)Nc2ccccc2N1", "> 100 µM (inactive)"),
    ("Nc1ncnc2c1ccn2CC#CCO", "> 100 µM (inactive)"),
    ("O=c1oc2ccc(Cl)cc2cc1-c1cn2ccccc2n1", "> 39.8 µM (inactive)"),
    ("O=[N+]([O-])/C(C(Cl)=C(Cl)Cl)=C(\\SCc1ccccc1)N1CCCCC1", "23.7 µM (inactive)"),
]

###

Measured GI50 accompanies every entry in the list below.
- System: SN12C
- PROTOCOL SUMMARY: NCI tumour cell line growth inhibition, 48 h
The source made the active and inactive calls. Cut-off read from the data, not from the text of the source: active = GI50 up to about 1.1 µM and inactive = higher.
REPORTED PROPERTY: GI50

# MOLECULE, REPORTED PROPERTY, REPORTED
measured = [
    ("CSC1=Nc2ccccc2N=C(c2ccc(Cl)cc2)C1", "GI50", "40.5 µM (inactive)"),
    ("COc1ccccc1NC(=O)C1=C(C)NC(C)=C(C(=O)Nc2ccccc2OC)C1C1=CC=COC1", "GI50", "60.7 µM (inactive)"),
    ("S=C(S)NCC1CCC(CNC(=S)S)CC1 (stereo not drawn)", "GI50", "20.6 µM (inactive)"),
]

###

- Test system: HOP-62
- PROTOCOL SUMMARY: NCI tumour cell line growth inhibition, 48 h
Calls of active or inactive are those of the source. Cut-off read from the data, not from the text of the source: active = GI50 up to about 1.1 µM and inactive = higher.
Possible outcomes: true = active, false = inactive

# COMPOUND, CATEGORY LABEL
data = [
    ("O=C(Oc1cccc2cccnc12)c1cc2cc(CCl)ccc2oc1=O", "false"),
    ("COC(=O)Nc1nc2cc(C(=O)c3cccs3)ccc2[nH]1", "true"),
    ("O=C(N/N=C/c1cc(Cl)cc(Cl)c1O)c1ccccc1O", "false"),
    ("Brc1c2nc3ccccc3nc2n2ccc3ccccc3c12", "false"),
    ("O=C1c2ccccc2C(=O)c2sc(Nc3ccc(Cl)cc3)nc21", "false"),
    ("CN(C)CCNC(=O)Cn1ccc(=O)c2ccc([N+](=O)[O-])cc21", "false"),
    ("CCCCNC(=O)C1=C(C)NC(C)=C(C(=O)NCCCC)C1", "false"),
    ("NCCCNOCCCN", "false"),
    ("O=[N+]([O-])c1ccc(Cl)cc1-n1nc(-c2ccccc2)cc1-c1ccccc1", "false"),
    ("CCOC(=O)Nc1sc2c(c1C#N)CCCC2", "false"),
    ("OC1c2ccccc2CCC1CN1CCN(CCOC(c2ccc(F)cc2)c2ccc(F)cc2)CC1 (stereo unspecified)", "false"),
    ("Cc1ccc2c(c1)S(=O)(=O)c1ccc3ccccc3c1N2", "false"),
    ("[O-][n+]1nc(N2CCOCC2)nc2ccccc21", "false"),
    ("S=C(S)NCC1CCC(CNC(=S)S)CC1 (stereo unspecified)", "false"),
    ("CN(C)CC1CCC(CN(C)C)C1=O (stereo unspecified)", "false"),
    ("CN(C)CCNC(=O)C(C)(C)Oc1ccc(C(=O)c2ccc(Cl)cc2)cc1Cl", "false"),
    ("COc1cc(C)c(/C=C2/N=C(c3ccccc3)OC2=O)c([N+](=O)[O-])c1OC", "false"),
    ("Clc1cc2nnn(C3CCCO3)c2cc1Cl (stereo unspecified)", "false"),
    ("CCOC(=O)c1c(SC(=O)c2ccc(C(C)(C)C)cc2)n(-c2ccccc2)c(=S)n(-c2ccccc2)c1=O", "false"),
    ("CN(CC1(CO)CCC1)c1cc(Cl)nc(N)n1", "false"),
    ("Cc1cc2c(=O)c(C)n[nH]c2c(C#N)c1C", "false"),
    ("NNc1ccccc1Cl", "false"),
    ("NNC(=O)C1CCC(=O)N1S(=O)(=O)c1ccccc1 (stereo unspecified)", "false"),
    ("Cc1cccc2c1C(=O)[C@@](C)([C@]1(C)Nc3cccc(C)c3C1=O)N2", "false"),
    ("Cc1ccc(C(=O)Oc2ccccc2)cc1/N=N/N(C)C", "false"),
    ("CC1(Cl)C(=O)NC(=O)N(C2CC(N=[N+]=[N-])C(CO)O2)C1N=[N+]=[N-] (stereo unspecified)", "false"),
    ("NCC1(N2CCOCC2)C2CCCC21CNc1ccccc1 (stereo unspecified)", "false"),
    ("CN1CCc2cc3c4cc2C1Cc1ccc(cc1)Oc1cc(ccc1O)CC1c2c(cc(O)c(c2O4)O3)CCN1C (stereo unspecified)", "false"),
    ("Brc1ccc(C2=NCSC(c3ccc(Br)cc3)=N2)cc1", "false"),
    ("COc1ccc2c(c1)O[C@@H]1[C@@H](OC3OC(CO)C(O)C(O)C3O)Oc3cc(OC)c(OC)cc3[C@]1(O)C2=O (stereo partly specified)", "false"),
    ("O=C(N/N=C1\\CCc2ccccc2C1)N/N=C1\\CCc2ccccc2C1", "false"),
]

Numbers sourced from ChEMBL document CHEMBL1201862.
